Test system: Citrobacter Freundli
measuredAttribute: MIC (µg/mL)
// note: answer is a bare numeric in µg/mL

molecule	MIC [µg/mL]
CC(C)(O/N=C(\C(=O)N[C@H]1CN(C(=O)NS(=O)(=O)N2CCN(C(=O)c3cc(=O)c(O)c[nH]3)CC2=O)C1=O)c1csc(N)n1)C(=O)O [Compound E17]	0.25

Any idea what MIC was measured for Nc1nc(C(=NOCC(=O)O)C(=O)NC2CN(C(=O)NS(=O)(=O)N3CC(CNC(=O)c4cc(=O)c(O)c[nH]4)OC3=O)C2=O)cs1 (stereo not drawn) [E27 (a)] ? 0.25

Any idea what MIC was measured for CC(C)(ON=C(C(=O)NC1CN(C(=O)NS(=O)(=O)N2CC(CNC(=O)c3cc(=O)c(O)c[nH]3)OC2=O)C1=O)c1csc(N)n1)C(=O)O (stereo not drawn) [E27 (b)] ? 0.5

Provenance of the data: patent US4975538A
